# Tested System: human sphingosine-1-phosphate receptor 1 (S1P1) (Homo sapiens)
# Sequence (P21453 whole entry): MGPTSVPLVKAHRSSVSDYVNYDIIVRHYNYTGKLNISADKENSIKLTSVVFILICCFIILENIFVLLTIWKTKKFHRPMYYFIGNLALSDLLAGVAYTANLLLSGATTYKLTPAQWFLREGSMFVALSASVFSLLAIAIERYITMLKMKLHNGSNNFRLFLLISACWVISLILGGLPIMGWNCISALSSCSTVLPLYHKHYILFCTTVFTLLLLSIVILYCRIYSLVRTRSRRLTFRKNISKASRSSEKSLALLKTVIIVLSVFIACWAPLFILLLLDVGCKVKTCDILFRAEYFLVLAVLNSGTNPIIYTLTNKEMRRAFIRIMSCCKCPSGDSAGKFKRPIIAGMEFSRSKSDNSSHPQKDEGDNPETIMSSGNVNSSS
# Test: Inhibition of cAMP production (HTRF cAMP HiRange), S1P1 CHO-K1 cells
# Format: cell-based
# Assay Conditions: inhibition of cAMP production; potency; read-out: hS1P1 CAMP pEC50 (converted)
Value Type: EC50

>  <Compound>
CC1(C)CC(=O)c2cc(-c3nc(-c4cccnc4)no3)ccc2O1

>  <Experimental Result>
> 316 nM

$$$$
>  <Compound>
CCC1(CC)CC(=O)c2cc(-c3nc(-c4ccc(C(=O)N(C)C)cc4)no3)ccc2O1

>  <Experimental Result>
> 316 nM

$$$$
>  <Compound>
CCc1ncc(-c2noc(-c3ccc4c(c3)nnn4C(C)C)n2)cn1

>  <Experimental Result>
> 316 nM

$$$$
>  <Compound>
CC(C)Cn1nnc2cc(-c3nc(-c4ccccc4Cl)no3)ccc21

>  <Experimental Result>
> 316 nM

$$$$
>  <Compound>
Brc1ccccc1-c1nc(-c2ccc3c(c2)nnn3CC2CC2)no1

>  <Experimental Result>
> 316 nM

$$$$

Provide EC50 value for the following compound: CC(C)n1nnc2cc(-c3noc(-c4ccccc4OC(F)(F)F)n3)ccc21
> 316 nM

Provide EC50 value for the following compound: FC(F)(F)c1cc(-c2noc(-c3ccc4c(c3)nnn4C3CCCC3)n2)ccc1OCc1cccnc1
> 316 nM

Provide EC50 value for the following compound: O=C1CCOc2ccc(-c3nc(-c4ccncc4)no3)cc21
> 316 nM

Provide EC50 value for the following compound: COc1cccc(-c2cnc(-c3ccc4c(c3)nnn4C(C)C)s2)c1
< 316 nM

Provide EC50 value for the following compound: CCC1(CC)CC(=O)c2cc(-c3nc(-c4ccc(OC)cc4)no3)ccc2O1
> 316 nM

Provide EC50 value for the following compound: COc1ccccc1-c1noc(-c2ccc3c(c2)nnn3C2CC2)n1
< 316 nM

Provide EC50 value for the following compound: O=C1CC2(CCCC2)Oc2ccc(-c3nc(-c4ccncc4)no3)cc21
> 316 nM

Provide EC50 value for the following compound: N#Cc1cc(-c2nc(-c3ccc4c(c3)CCC(=O)N4)no2)ccc1NCCF
< 316 nM

Provide EC50 value for the following compound: Cc1cc(C)cc(-c2noc(-c3ccc4c(c3)nnn4C3CCOCC3)n2)c1
> 316 nM

Provide EC50 value for the following compound: COc1ccccc1-c1nsc(-c2ccc3c(c2)nnn3C(C)C)n1
> 316 nM

Provide EC50 value for the following compound: CCC1(CC)CC(=O)c2cc(-c3nc(-c4ccccc4Cl)no3)ccc2O1
< 316 nM

Provide EC50 value for the following compound: Cc1ccccc1-c1noc(-c2ccc3c(c2)nnn3CC2CC2)n1
> 316 nM

Provide EC50 value for the following compound: O=C1CC2(CCOCC2)Oc2ccc(-c3nc(-c4ccncc4)no3)cc21
> 316 nM

Provide EC50 value for the following compound: CC(C)n1nnc2cc(-c3nc(Cc4ccccc4)no3)ccc21
> 316 nM

Provide EC50 value for the following compound: CCC1(CC)CC(=O)c2cc(-c3nc(-c4ccc(N)cc4)no3)ccc2O1
< 316 nM

Provide EC50 value for the following compound: CC(C)n1nnc2cc(-c3nc(-c4ccc(Cl)s4)no3)ccc21
> 316 nM

Provide EC50 value for the following compound: Cc1ccccc1C(C)c1noc(-c2ccc3c(c2)nnn3C(C)C)n1 (stereo not drawn)
> 316 nM

Provide EC50 value for the following compound: COc1cccc(-c2nc(-c3ccc4c(c3)nnn4C(C)C)no2)c1
> 316 nM

Provide EC50 value for the following compound: Cc1ccc(-c2noc(-c3ccc4c(c3)nnn4C(C)C)n2)cn1
> 316 nM
